- assay info: Selectivity index, ratio of Ki for JAK2 to Ki for LRRK2
parameter measured: Ratio Ki

smiles str	Ratio Ki
CNc1nc(Nc2ccc(C(=O)N3CCOCC3)cc2OC)ncc1C#N	> 246
CNc1nc(Nc2ccccc2OC(F)F)ncc1Cl	> 457
CNc1nc(Nc2ccc(C(=O)N3CCOCC3)cc2Br)ncc1Cl	> 246
CNc1nc(Nc2ccc(C(=O)N3CCOCC3)cc2)ncc1Cl	1
CNc1nc(Nc2ccc(C(=O)N3CCOCC3)cc2OC)ncc1Br	> 3000

Now, please, on to the next compound.
Task: Any idea what its Ratio Ki is? The compound is CNc1nc(Nc2ccccc2C)ncc1Cl
Result: > 160
